// reported response vs control in vivo at 100 mg/kg for each item listed
# Test system: Ehrlich acites carcinoma
# Assay Overview: Growth-inhibiting effect against Ehrlich acites carcinoma
# Assay type: in vivo, male mice
# Assay Setup: Mus musculus, Ehrlich, 120 h; 100 mg/kg/day ip, 5 days; read-out: T/C %
# number then unit; no other words

The following compounds have reported results that may help.
INSERT INTO results (compound, measured_parameter, result) VALUES
  ('COCC(C)N(C[C@H]1O[C@H](OCC(C)C)[C@H](O)[C@@H](O)[C@H]1O)C(=O)N(CCCl)N=O (stereo partly shown)', 'response vs control in vivo at 100 mg/kg', '0%'),
  ('CC(CN1CCOCC1)O[C@@H]1O[C@H](CN(C(=O)N(CCCl)N=O)C(C)(C)C)[C@@H](O)[C@H](O)[C@H]1O (stereo partly shown)', 'response vs control in vivo at 100 mg/kg', '0%'),
  ('CCCCO[C@H]1O[C@H](CN(CCOCCO)C(=O)N(CCCl)N=O)[C@@H](O)[C@H](O)[C@H]1O', 'response vs control in vivo at 100 mg/kg', '0%');

Ask | Can you share its response vs control in vivo at 100 mg/kg? I mean this compound: CCCCO[C@H]1O[C@H](CN(CCCOC)C(=O)N(CCCl)N=O)[C@@H](O)[C@H](O)[C@H]1O
Reply | 0%

Ask | Can you share its response vs control in vivo at 100 mg/kg? I mean this compound: COCCN(C(=O)N(CCCl)N=O)C1C(CO)OC(OCC(C)C)C(O)C1O (stereo not shown)
Reply | 0%

Ask | Can you share its response vs control in vivo at 100 mg/kg? I mean this compound: CC(C)CN(C[C@H]1O[C@@H](OCC2CCCO2)[C@H](O)[C@@H]1O)C(=O)N(CCCl)N=O (stereo partly shown)
Reply | 0%

Ask | Can you share its response vs control in vivo at 100 mg/kg? I mean this compound: COCCN(C[C@H]1O[C@H](OC2CCCCC2)[C@H](O)[C@@H](O)[C@@H]1O)C(=O)N(CCCl)N=O
Reply | 0%

---

# Test system: Leukemia L1210
# Assay Overview: Activity against Leukemia L1210, intraperitoneal, increase in life span of mice
# Format: in vivo, female mice (BDF1 family)
# Assay Setup: ip; O.D./ILS30
Grouping rule (Therapeutic ratio TR): low class: < 40; middle class: ≥ 40 and < 60; high class: ≥ 60

INSERT INTO assay_data (molecule, assayed_target, cat) VALUES
  ('CCOCCO[C@H]1O[C@H](CN(C(=O)N(CCCl)N=O)C(C)C)[C@H](O)[C@H](O)[C@H]1O', 'Leukemia L1210', 'high class'),
  ('CC(C)(C)CN(C[C@H]1O[C@H](OCC2CCCO2)[C@H](O)[C@@H](O)[C@@H]1O)C(=O)N(CCCl)N=O (some centres unmarked) [Compound 188]', 'Leukemia L1210', 'high class'),
  ('CCCCO[C@H]1O[C@H](CN(CC(C)C)C(=O)N(CCCl)N=O)[C@@H](O)[C@H](O)[C@H]1O', 'Leukemia L1210', 'middle class'),
  ('CCC(C)O[C@H]1O[C@H](CN(CCC(C)(C)C)C(=O)N(CCCl)N=O)[C@@H](O)[C@H](O)[C@H]1O (some centres unmarked)', 'Leukemia L1210', 'middle class'),
  ('O=NN(CCCl)C(=O)N(CCCCO)C1C(OC2CCCCC2)OC(CO)C(O)C1O (centres unmarked)', 'Leukemia L1210', 'low class'),
  ('CC(C)N(C(=O)N(CCCl)N=O)[C@@H]1CO[C@H](OC2CCCCC2)[C@H](O)[C@H]1O', 'Leukemia L1210', 'middle class'),
  ('COCC(C)O[C@H]1O[C@H](CN(CC(C)C)C(=O)N(CCCl)N=O)[C@@H](O)[C@@H](O)[C@@H]1O (some centres unmarked)', 'Leukemia L1210', 'middle class'),
  ('COC(C)CN(C[C@H]1O[C@H](OC2CCCCC2)[C@H](O)[C@@H](O)[C@@H]1O)C(=O)N(CCCl)N=O (some centres unmarked)', 'Leukemia L1210', 'high class'),
  ('CCOCCCOC1OC(CO)C(O)C(N(CC(C)C)C(=O)N(CCCl)N=O)C1O (centres unmarked)', 'Leukemia L1210', 'low class'),
  ('CC(C)CO[C@@H]1O[C@H](CN(C(=O)N(CCCl)N=O)C(C)(C)C)[C@@H](O)[C@H](O)[C@H]1O', 'Leukemia L1210', 'middle class');

Ask | Which Therapeutic ratio TR category applies to CCC(C)O[C@@H]1OC[C@H](O)[C@H](O)[C@H]1N(CCCOC)C(=O)N(CCCl)N=O (some centres unmarked) here?
Reply | middle class

---

# Test system: Leukemia L1210
# Assay Overview: Activity against Leukemia L1210, intraperitoneal, increase in life span of mice
# Format: in vivo, female mice (BDF1 family)
# Assay Setup: ip; O.D./ILS30
Measured Parameter: Therapeutic ratio TR
// return a plain number; no unit text

The following compounds have reported results that may help.
INSERT INTO results (compound, result_number) VALUES
  ('C=C(C)CN(C[C@H]1O[C@H](OC(C)CC)[C@H](O)[C@@H](O)[C@@H]1O)C(=O)N(CCCl)N=O (stereo partly shown) [Compound 18]', 43.4),
  ('CCC(C)OC1OC(CO)C(N(C(=O)N(CCCl)N=O)C(C)COC)C(O)C1O (stereo not shown) [Compound 96]', 33.6),
  ('CCC(C)O[C@H]1O[C@H](CN(CC(C)C)C(=O)N(CCCl)N=O)[C@@H](O)[C@H](O)[C@H]1O (stereo partly shown) [Compound 17]', 47.9);

Ask | Can you share its Therapeutic ratio TR? I mean this compound: COCC(C)N(C[C@H]1O[C@H](OC2CCCCC2)[C@H](O)[C@@H](O)[C@@H]1O)C(=O)N(CCCl)N=O (stereo partly shown) [Compound 42]
Reply | 66.6

Ask | Can you share its Therapeutic ratio TR? I mean this compound: CC=CCO[C@H]1O[C@H](CN(CC(C)C)C(=O)N(CCCl)N=O)[C@@H](O)[C@H](O)[C@H]1O [Compound 29]
Reply | 38.5

Ask | Can you share its Therapeutic ratio TR? I mean this compound: CCCCO[C@H]1O[C@H](CO)[C@@H](O)[C@H](O)[C@H]1N(CCCOC)C(=O)N(CCCl)N=O [Compound 57]
Reply | 34.5

Ask | Can you share its Therapeutic ratio TR? I mean this compound: O=NN(CCCl)C(=O)N(CCC1CCCC1)C[C@H]1O[C@H](OC2CCCCC2)[C@H](O)[C@@H](O)[C@@H]1O [Compound 45]
Reply | 42.7

Ask | Can you share its Therapeutic ratio TR? I mean this compound: COCCN(C[C@H]1O[C@H](OC2CCCCC2)[C@H](O)[C@@H](O)[C@H]1O)C(=O)N(CCCl)N=O [Compound 101]
Reply | 54.6

Ask | Can you share its Therapeutic ratio TR? I mean this compound: C=C(C)CN(C(=O)N(CCCl)N=O)[C@@H]1[C@H](O)[C@@H](O)[C@@H](OCC(COC)OC)O[C@@H]1CO (stereo partly shown) [Compound 130]
Reply | 31.6

Ask | Can you share its Therapeutic ratio TR? I mean this compound: CC(C)CN(C[C@H]1O[C@H](OCC2CCCO2)[C@@H](O)[C@@H](O)[C@@H]1O)C(=O)N(CCCl)N=O (stereo partly shown) [Compound 136]
Reply | 68.0

Ask | Can you share its Therapeutic ratio TR? I mean this compound: COc1cc(CO[C@H]2O[C@H](CN(CC(C)C)C(=O)N(CCCl)N=O)[C@@H](O)[C@H](O)[C@H]2O)cc(OC)c1OC [Compound 53]
Reply | 30.4

Ask | Can you share its Therapeutic ratio TR? I mean this compound: CCOCCCN(C(=O)N(CCCl)N=O)C1C(OC2CCCCC2)OC(CO)C(O)C1O (stereo not shown) [Compound 65]
Reply | 45.0

Ask | Can you share its Therapeutic ratio TR? I mean this compound: CCC(COC)O[C@H]1O[C@H](CN(CC(C)(C)C)C(=O)N(CCCl)N=O)[C@@H](O)[C@H](O)[C@H]1O (stereo partly shown) [Compound 185]
Reply | 63.1

Ask | Can you share its Therapeutic ratio TR? I mean this compound: CCOCCCN(C(=O)N(CCCl)N=O)[C@H]1[C@H](OC(C)CC)OC[C@H](O)[C@@H]1O (stereo partly shown) [Compound 157]
Reply | 57.8

Ask | Can you share its Therapeutic ratio TR? I mean this compound: O=NN(CCCl)C(=O)N[C@H]1C(O)O[C@H](CO)[C@@H](O)[C@@H]1O (stereo partly shown) [DCNU, reference compound]
Reply | 8.9

Ask | Can you share its Therapeutic ratio TR? I mean this compound: C=C(C)CN(C(=O)N(CCCl)N=O)C1C(CO)OC(OC2CCCCC2)C(O)C1O (stereo not shown) [Compound 97]
Reply | 32.3

Ask | Can you share its Therapeutic ratio TR? I mean this compound: COCC(C)O[C@H]1O[C@H](CN(CC(C)C)C(=O)N(CCCl)N=O)[C@@H](O)[C@H](O)[C@H]1O (stereo partly shown) [Compound 33]
Reply | 64.9

Ask | Can you share its Therapeutic ratio TR? I mean this compound: CC(C)CN(C[C@H]1O[C@H](OCc2ccccc2)[C@@H](O)[C@H](O)[C@@H]1O)C(=O)N(CCCl)N=O [Compound 139]
Reply | 28.4
